Target: Inositol monophosphatase 1 (Bos taurus) (UniProt P20456)
Sequence (P20456 whole entry): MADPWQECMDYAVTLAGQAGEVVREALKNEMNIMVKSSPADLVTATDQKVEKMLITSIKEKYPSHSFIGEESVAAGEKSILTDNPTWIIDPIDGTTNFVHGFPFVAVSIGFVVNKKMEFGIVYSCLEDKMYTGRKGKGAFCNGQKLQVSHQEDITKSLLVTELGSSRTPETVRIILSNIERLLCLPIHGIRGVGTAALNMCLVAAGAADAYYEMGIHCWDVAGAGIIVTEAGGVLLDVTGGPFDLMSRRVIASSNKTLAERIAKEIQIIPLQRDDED
Assay: Activity against the bovine inositol monophosphatase was determined by rate of release of inorganic phosphate at 1 mM substrate concentration, 1 mM of inositol-1-phosphate (1).
property_name: Activity
Respond using a number only.

// solved cases for Activity follow
O=P(O)(O)O[C@H]1CO[C@H](CO)[C@H]1O    0.65
O=P(O)(O)O[C@@H]1CO[C@@H](CO)[C@@H]1O    0.53
Nc1ncnc2c1ncn2[C@@H]1O[C@H](CO)[C@@H](O)[C@H]1OP(=O)(O)O    0.48

Now turn to the next compound.
Query: What Activity value was documented for this compound, O=P(O)(O)O[C@H]1COC[C@H]1O ?
Response: 0.53
